Origin of values: patent US20230263822A1

# Test system: Factor 11 protein
# measurement protocol: Factor 11 protein in monkey plasma by sandwich ELISA (Example 46)
# Assay type: in vivo, cynomolgus monkeys
# assay setup: Day 38, plasma, 25 mg/kg subcutaneously
Strand notation (5' to 3'): a small letter for the sugar, then the base; units joined by * are phosphorothioate-linked, units joined directly phosphodiester-linked; [ ] holds rarer units or linkages, { } end groups; capitals alone tell only the bases. e = 2'-O-(2-methoxyethyl) (MOE); [5mC] = 5-methylcytosine; d = 2'-deoxy (DNA)
observed property: Inhibition of Factor 11 protein relative to the PBS control (percentage reduction) (%)
Supply the numeric figure in %, leaving out any unit text.

| substance | number |
| --- | --- |
| 445531 (antisense eG*eG*e[5mC]*eA*eT*dT*dG*dG*dT*dG*d[5mC]*dA*d[5mC]*eA*eG*eT*eT*eT) [compound 445531] | 29 |
| 449708 (antisense eA*e[5mC]*eA*dG*dT*dT*dT*d[5mC]*dT*dG*dG*e[5mC]*eA*eG) [compound 449708] | 9 |

We now examine a further substance.
In: Which Inhibition of Factor 11 protein relative to the PBS control (percentage reduction) is listed for 449707 (antisense e[5mC]*eA*e[5mC]*eA*dG*dT*dT*dT*d[5mC]*dT*dG*dG*e[5mC]*eA*eG*eG) [compound 449707] ?
Out: 28

====

# Test system: human Factor 11 mRNA
# measurement protocol: Dose-dependent inhibition of human Factor 11 in cyano primary hepatocytes, electroporation (Example 6)
# Assay type: cell-based
# assay setup: 60 nM, ~16 hours
percent inhibition of human Factor 11 mRNA relative to untreated control cells values for the substances below.
Supply the numeric figure in %, leaving out any unit text.

Solved cases (3 shown):
| substance | number |
| --- | --- |
| 417003 (antisense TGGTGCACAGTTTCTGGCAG; 2-13-5 gapmer chemistry, further chemistry not given here) [compound 417003] | 58 |
| 416825 (antisense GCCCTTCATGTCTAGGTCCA; 5-10-5 gapmer, further chemistry not given here) [compound 416825] | 77 |
| 416925 (antisense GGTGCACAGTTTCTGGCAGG; 3-14-3 gapmer chemistry, further chemistry not given here) [compound 416925] | 55 |

In: Which percent inhibition of human Factor 11 mRNA relative to untreated control cells is listed for 416850 (antisense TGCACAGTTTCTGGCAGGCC; 5-10-5 gapmer, further chemistry not given here) [compound 416850] ?
Out: 69

In: And 416838 (antisense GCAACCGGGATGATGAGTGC; 5-10-5 gapmer, further chemistry not given here) [compound 416838] ?
Out: 48

In: And 416826 (antisense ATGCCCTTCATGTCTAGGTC; 5-10-5 gapmer, further chemistry not given here) [compound 416826] ?
Out: 69

====

# assay setup: rat, in vivo, sc, 50 mg/kg
e = 2'-O-(2-methoxyethyl) (MOE); d = 2'-deoxy (DNA)
Binary call on ALT with cut-off 80 IU/L: strictly below means true (1), and equality or higher means false (0).

Please review the following examples before continuing.
| substance | class assignment |
| --- | --- |
| ISIS 416856: MOE gapmer, nucleobases 1275 to 1318 of SEQ ID NO: 1 (Table 8) (antisense GGCATTGGTGCACAGTTTCT; MOE gapmer, wing and gap sizes not given here) | false (0) |
| ISIS 416861: MOE gapmer, nucleobases 1275 to 1318 of SEQ ID NO: 1 (Table 8) (antisense GCGGACGGCATTGGTGCACA; MOE gapmer, wing and gap sizes not given here) | false (0) |

In: In plain terms, does ISIS 412223: 5-10-5 MOE gapmer ACAGTTTCTGGCAGGCCTCG (sugars from the 5' end e5 d10 e5, backbone and methylation of C not given here) come in under 80 IU/L for ALT?
Out: false (0)

In: And ISIS 416851: MOE gapmer, nucleobases 1275 to 1318 of SEQ ID NO: 1 (Table 8) (antisense GTGCACAGTTTCTGGCAGGC; MOE gapmer, wing and gap sizes not given here) ?
Out: true (1)

In: And ISIS 412224: 5-10-5 MOE gapmer GCATTGGTGCACAGTTTCTG (sugars from the 5' end e5 d10 e5, backbone and methylation of C not given here) ?
Out: false (0)

In: And ISIS 413481: 5-10-5 MOE gapmer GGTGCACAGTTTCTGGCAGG (sugars from the 5' end e5 d10 e5, backbone and methylation of C not given here) ?
Out: true (1)
